Assay notes: Cytotoxicity against PMA-differentiated human U937 macrophages assessed as cell viability at 10 uM after 24 hrs by MTT assay relative to untreated control
Assay type: cell-based, U-937
Applied conditions: read-out: Activity
Task for the reader: assign each of the following compounds its reported viability at 24 h, 10 µM.
One number for each entry, in %.

{"Compound": "CCCCCc1cc(O)cc(O)c1Oc1cc(OC)cc(C(=O)CCCC)c1C(=O)OC", "Measured attribute": "viability at 24 h, 10 µM", "Assay value": 119}
{"Compound": "CCC/C=C1\\OC(=O)c2cc(Oc3c(O)cc(O)cc3CCCCC)c(OC)cc21", "Measured attribute": "viability at 24 h, 10 µM", "Assay value": 117}
{"Compound": "COC(=O)c1c(C)cc(O)c(C=O)c1O [METHYL HAEMATOMMATE]", "Measured attribute": "viability at 24 h, 10 µM", "Assay value": 119}
{"Compound": "CCCCCc1c(Oc2cc(OC)cc(C(=O)CCCC)c2C(=O)OC)c(O)cc(O)c1C(=O)O", "Measured attribute": "viability at 24 h, 10 µM", "Assay value": 96}
{"Compound": "CCCCCc1cc(O)cc(O)c1Oc1cc2c(cc1OC)C(CCCC)(OC)OC2=O (centres undefined)", "Measured attribute": "viability at 24 h, 10 µM", "Assay value": 116}
{"Compound": "CCCCCc1cc(O)cc(O)c1Oc1cc(OC)cc2c1C(=O)OC2(O)CCCC (centres undefined)", "Measured attribute": "viability at 24 h, 10 µM", "Assay value": 118}
{"Compound": "COC(=O)c1c(C)cc(O)c(C)c1O", "Measured attribute": "viability at 24 h, 10 µM", "Assay value": 112}
{"Compound": "CCCCCc1c(Oc2cc3c(cc2OC)C(CCCC)(OC)OC3=O)c(O)cc(O)c1C(=O)O (centres undefined)", "Measured attribute": "viability at 24 h, 10 µM", "Assay value": 126}

Now for the compound whose viability at 24 h, 10 µM we want.
Endpoint output: viability at 24 h, 10 µM of CCCCCc1c2c(cc(O)c1C(=O)O)OC(=O)c1c(cc(OC)cc1C(=O)CCCC)O2 . Value?
118

----------
System: U-937
Assay notes: Antiinflammatory activity in PMA-differentiated human U937 cells assessed as inhibition of LPS-induced TNFalpha secretion at 20 uM preincubated for 2 hrs followed by LPS stimulation and measured after 24 hrs post LPS challenge by ELISA relative to control
Format: functional
Please provide measured inhibition at 20 µM for the entries that follow.
Answers are plain numbers, in %.

Consider the following illustrative entries.
{"Compound": "CCCCCc1c(Oc2cc(OC)cc(C(=O)CCCC)c2C(=O)OC)c(O)cc(O)c1C(=O)O", "Assay value": 0}
{"Compound": "COC(=O)c1c(C)cc(O)c(C=O)c1O [METHYL HAEMATOMMATE]", "Assay value": 3}
{"Compound": "CCCCCc1c(Oc2cc3c(cc2OC)C(CCCC)(OC)OC3=O)c(O)cc(O)c1C(=O)O (centres undefined)", "Assay value": 0}

Could you report inhibition at 20 µM for every entry in the following list?
1. CCCCCc1c2c(cc(O)c1C(=O)O)OC(=O)c1c(cc(OC)cc1C(=O)CCCC)O2
2. CCCCCc1cc(O)cc(O)c1Oc1cc(OC)cc2c1C(=O)OC2(O)CCCC (centres undefined)
3. CCCCCc1cc(O)cc(O)c1Oc1cc2c(cc1OC)C(CCCC)(OC)OC2=O (centres undefined)
4. CCCCCc1cc(O)cc(O)c1Oc1cc(OC)cc(C(=O)CCCC)c1C(=O)OC
5. CCC/C=C1\OC(=O)c2cc(Oc3c(O)cc(O)cc3CCCCC)c(OC)cc21
6. COC(=O)c1c(C)cc(O)c(C)c1O

[89, 0, 0, 0, 0, 0]

----------
Study system: Toll-like receptor 4 (Homo sapiens) (UniProt O00206)
Sequence (O00206 whole entry): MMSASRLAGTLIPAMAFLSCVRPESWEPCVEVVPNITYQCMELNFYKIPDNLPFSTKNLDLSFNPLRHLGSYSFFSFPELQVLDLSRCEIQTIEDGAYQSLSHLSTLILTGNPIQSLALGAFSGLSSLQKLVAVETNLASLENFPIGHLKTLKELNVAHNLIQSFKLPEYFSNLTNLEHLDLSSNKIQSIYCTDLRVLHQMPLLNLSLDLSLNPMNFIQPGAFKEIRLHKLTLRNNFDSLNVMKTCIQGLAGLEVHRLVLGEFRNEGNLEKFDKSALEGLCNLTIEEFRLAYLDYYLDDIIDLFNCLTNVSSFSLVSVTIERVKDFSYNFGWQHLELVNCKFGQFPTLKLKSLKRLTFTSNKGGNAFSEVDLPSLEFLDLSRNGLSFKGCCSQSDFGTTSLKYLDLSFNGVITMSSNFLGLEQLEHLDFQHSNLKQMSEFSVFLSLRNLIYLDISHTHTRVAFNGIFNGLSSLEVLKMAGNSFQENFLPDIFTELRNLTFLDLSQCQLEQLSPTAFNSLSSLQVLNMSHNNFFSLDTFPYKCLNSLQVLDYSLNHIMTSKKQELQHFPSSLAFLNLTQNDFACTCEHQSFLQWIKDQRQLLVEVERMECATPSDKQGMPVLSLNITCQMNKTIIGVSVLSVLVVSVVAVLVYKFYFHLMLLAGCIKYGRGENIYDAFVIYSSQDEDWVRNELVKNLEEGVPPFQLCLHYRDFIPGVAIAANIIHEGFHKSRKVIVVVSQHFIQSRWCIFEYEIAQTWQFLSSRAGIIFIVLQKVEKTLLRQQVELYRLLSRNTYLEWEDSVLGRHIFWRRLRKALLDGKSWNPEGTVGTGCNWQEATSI
Assay notes: Inhibition of TLR4 in human U937-3xkappaB-LUC cells assessed as inhibition of Aggregatibacter actinomycetemcomitans LPS-induced NF-kappaB activation at 50 uM preincubated for 30 mins followed by LPS stimulation and measured after 6 hrs post LPS challenge by Bright-Glo luciferase reporter gene assay relative to control
Measured attribute: inhibition (%)
Answers are plain numbers, in %.

Past entries and their recorded results:
{"Compound": "CCCCCc1cc(O)cc(O)c1Oc1cc2c(cc1OC)C(CCCC)(OC)OC2=O (centres undefined)", "Unit info": "%", "Assay value": 34}
{"Compound": "CCC/C=C1\\OC(=O)c2cc(Oc3c(O)cc(O)cc3CCCCC)c(OC)cc21", "Unit info": "%", "Assay value": 99}
{"Compound": "CCCCCc1c(Oc2cc(OC)cc(C(=O)CCCC)c2C(=O)OC)c(O)cc(O)c1C(=O)O", "Unit info": "%", "Assay value": 98}
{"Compound": "CCCCCc1cc(O)cc(O)c1Oc1cc(OC)cc2c1C(=O)OC2(O)CCCC (centres undefined)", "Unit info": "%", "Assay value": 36}

Can you give me inhibition for all of these, one by one?
1. COC(=O)c1c(C)cc(O)c(C)c1O [ATRARIC ACID]
2. CCCCCc1c2c(cc(O)c1C(=O)O)OC(=O)c1c(cc(OC)cc1C(=O)CCCC)O2 [LOBARIC ACID]
3. CCCCCc1c(Oc2cc3c(cc2OC)C(CCCC)(OC)OC3=O)c(O)cc(O)c1C(=O)O (centres undefined)
4. CCCCCc1cc(O)cc(O)c1Oc1cc(OC)cc(C(=O)CCCC)c1C(=O)OC
5. COC(=O)c1c(C)cc(O)c(C=O)c1O [METHYL HAEMATOMMATE]

1. 25
2. 99
3. 84
4. 52
5. 67

----------
Assay notes: Cytotoxicity against PMA-differentiated human U937 macrophages assessed as cell viability at 20 uM after 24 hrs by MTT assay relative to untreated control
Type: cell-based, U-937
Applied conditions: read-out: Activity
For each of the compounds below, state its viability at 24 h, 20 µM.
Give bare numbers, in %.

These recorded examples may help you get a feel for the data.
{"Compound": "CCCCCc1c(Oc2cc3c(cc2OC)C(CCCC)(OC)OC3=O)c(O)cc(O)c1C(=O)O (centres undefined)", "viability at 24 h, 20 µM, %": 131}
{"Compound": "COC(=O)c1c(C)cc(O)c(C)c1O [ATRARIC ACID]", "viability at 24 h, 20 µM, %": 118}
{"Compound": "CCCCCc1cc(O)cc(O)c1Oc1cc(OC)cc(C(=O)CCCC)c1C(=O)OC", "viability at 24 h, 20 µM, %": 105}

May I ask what viability at 24 h, 20 µM has been recorded for CCCCCc1cc(O)cc(O)c1Oc1cc2c(cc1OC)C(CCCC)(OC)OC2=O (centres undefined) ?
96

----------
Study system: Toll-like receptor 4 (Homo sapiens) (UniProt O00206)
Assay notes: Inhibition of TLR4 in human U937-3xkappaB-LUC cells assessed as inhibition of Aggregatibacter actinomycetemcomitans LPS-induced NF-kappaB activation at 20 uM preincubated for 30 mins followed by LPS stimulation and measured after 6 hrs post LPS challenge by Bright-Glo luciferase reporter gene assay relative to control
Would you kindly list inhibition for each of these compounds?
Give bare numbers, in %.

Please review the following examples before continuing.
{"Compound": "CCCCCc1c2c(cc(O)c1C(=O)O)OC(=O)c1c(cc(OC)cc1C(=O)CCCC)O2 [LOBARIC ACID]", "Measured attribute": "inhibition", "Assay value": 78}
{"Compound": "CCCCCc1cc(O)cc(O)c1Oc1cc(OC)cc(C(=O)CCCC)c1C(=O)OC", "Measured attribute": "inhibition", "Assay value": 52}
{"Compound": "CCCCCc1c(Oc2cc(OC)cc(C(=O)CCCC)c2C(=O)OC)c(O)cc(O)c1C(=O)O", "Measured attribute": "inhibition", "Assay value": 75}
{"Compound": "CCCCCc1cc(O)cc(O)c1Oc1cc(OC)cc2c1C(=O)OC2(O)CCCC (centres undefined)", "Measured attribute": "inhibition", "Assay value": 48}
{"Compound": "CCCCCc1cc(O)cc(O)c1Oc1cc2c(cc1OC)C(CCCC)(OC)OC2=O (centres undefined)", "Measured attribute": "inhibition", "Assay value": 29}

// each listed compound needs a value for inhibition
1. COC(=O)c1c(C)cc(O)c(C=O)c1O [METHYL HAEMATOMMATE]
2. COC(=O)c1c(C)cc(O)c(C)c1O [ATRARIC ACID]
3. CCCCCc1c(Oc2cc3c(cc2OC)C(CCCC)(OC)OC3=O)c(O)cc(O)c1C(=O)O (centres undefined)
4. CCC/C=C1\OC(=O)c2cc(Oc3c(O)cc(O)cc3CCCCC)c(OC)cc21

[38, 36, 63, 60]
